Test: in vitro
Type: in vitro ADME
Conditions: Sprague Dawley, rat, microsomes, pH 7.4

Compound: [2H]C([2H])([18F])C([2H])([2H])C([2H])([2H])C([2H])([2H])n1c(C)c(C)s/c1=N\C(=O)C1C(C)(C)C1(C)C [[^18F]JHU94620-d8]
half-life / min: 10.8

---

Biological target: hCB2R(D80N) (Homo sapiens, UniProt P34972, D80N)
Sequence (P34972 whole entry D80N): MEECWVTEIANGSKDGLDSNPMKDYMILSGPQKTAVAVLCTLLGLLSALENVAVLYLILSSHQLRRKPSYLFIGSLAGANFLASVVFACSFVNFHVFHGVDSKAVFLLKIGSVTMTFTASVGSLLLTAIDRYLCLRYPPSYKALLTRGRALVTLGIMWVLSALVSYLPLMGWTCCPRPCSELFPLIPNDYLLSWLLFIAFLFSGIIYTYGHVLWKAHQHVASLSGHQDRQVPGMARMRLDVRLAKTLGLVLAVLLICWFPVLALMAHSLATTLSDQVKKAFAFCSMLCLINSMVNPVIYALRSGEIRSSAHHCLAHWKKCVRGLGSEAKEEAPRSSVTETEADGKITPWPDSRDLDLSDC
Experiment: Homologous displacement autoradiography, brain cryosections of rats with hCB2R(D80N) overexpression
Assay type: binding
Details: hCB2R(D80N) region, 10 µm rat brain cryosections, homologous displacement, n = 3; read-out: KD
Reported Metric: Kd (nM)

Compound: [2H]C([2H])(F)C([2H])([2H])C([2H])([2H])C([2H])([2H])n1c(C)c(C)s/c1=N\C(=O)C1C(C)(C)C1(C)C [JHU94620-d8]
Reported Metric: Kd
Measurement: 41.3
